Test system: Streptococcus pneumoniae
ASSAY_INFO: Antibacterial activity against multidrug-resistant Streptococcus pneumoniae 1175 harboring mefA gene by NCCLS method
Assay type: functional
// reported MIC for each item listed

Documented MIC of CC[C@H]1OC(=O)[C@H](C)C(=O)[C@H](C)[C@@H](O[C@@H]2O[C@H](C)C[C@H](N(C)C)[C@H]2O)[C@](C)(OC)C[C@@H](C)C(=O)[C@H](C)[C@H]2N(CCCCn3cnc(-c4cccnc4)c3)C(=O)O[C@]12C [TELITHROMYCIN] : ≤ 0.06 µg/mL

Reported MIC for CC[C@H]1OC(=O)[C@H](C)C(=O)[C@H](C)[C@@H](O[C@@H]2O[C@H](C)C[C@H](N(C)C)[C@H]2O)[C@](C)(O)C[C@@H](C)C(=O)[C@H](C)[C@H]2N(C3CN(Cc4ccnc5cccnc45)C3)C(=O)O[C@]12C was ≤ 0.06 µg/mL

Lab note: measured MIC of CC[C@H]1OC(=O)[C@H](C)C(=O)[C@H](C)[C@@H](O[C@@H]2O[C@H](C)C[C@H](N(C)C)[C@H]2O)[C@](C)(O)C[C@@H](C)C(=O)[C@H](C)[C@H]2N(C3CN(Cc4c(O)cnc5cccnc45)C3)C(=O)O[C@]12C was ≤ 0.06 µg/mL
